# Test system: NCI/ADR-RES ovarian
# Test Description: NCI-60 one-dose screen, 48 h
# Applied Conditions: 10 µM unless noted
The panel holds about 83,000 compounds, 20% with a hit somewhere; the sample as a whole holds those more often. Calls of active or inactive are those of the source. Rule for the calls: active = growth percent below 10; inactive = the rest.
Labels: 1 for active, 0 for inactive

Compound | Tested On | Qualitative Label
C1CCC([PH+](C2CCCCC2)C2CCCCC2[PH+](C2CCCCC2)C2CCCCC2)CC1.[Au].[CH-]1CCCCC1CC1CCCC[N-]1 (centres undefined) | NCI/ADR-RES ovarian | 0
COc1cccc(C2CC(=O)Nc3cc4c(cc32)CCC4)c1OC (centres undefined) | NCI/ADR-RES ovarian | 0
C=C(C)CCCC(C)CC#N (centres undefined) | NCI/ADR-RES ovarian | 0
COc1cc(-c2nc(SC(C)C)nc(Nc3cccc(C)c3)c2C#N)cc(OC)c1OC | NCI/ADR-RES ovarian | 0
O=c1oc2ccccc2cc1-c1csc(N=Nc2c(O)[nH]c3ccc(Cl)cc23)n1 | NCI/ADR-RES ovarian | 0
COC(=O)[C@@]12CC[C@@H](C)[C@]3(C[C@@H](c4ccoc4)OC3=O)[C@H]1CC[C@@H]1O[C@@]12C | NCI/ADR-RES ovarian | 0
Nc1nc(N)c(N=Nc2c(Br)cc(S(N)(=O)=O)cc2Br)c(N)n1 | NCI/ADR-RES ovarian | 0
CCCCCn1c(=N)n(CC(O)COc2cccc(C)c2)c2ccccc21 (centres undefined) | NCI/ADR-RES ovarian | 1
CC(C)(C)[Si](C)(C)OC1[C@@H](COC(=O)NC(=O)CCl)O[C@@H](n2cnc3c(N)ncnc32)[C@H]1O[Si](C)(C)C(C)(C)C (some centres undefined) | NCI/ADR-RES ovarian | 0
C=CC(=O)N1CC2(CCC(n3nc(-c4ccc(Oc5ccccc5)cc4)c4c(N)ncnc43)CC2)C1 | NCI/ADR-RES ovarian | 1
CON=C1C[C@]2(C[C@@H]3C[C@@H](C/C=C(\C)C[C@@H](C)/C=C/C=C4\CO[C@@H]5[C@H](O)C(C)=C[C@@H](C(=O)O3)[C@]45O)O2)O[C@H](/C(C)=C/C(C)C)[C@H]1C | NCI/ADR-RES ovarian | 0
O=C(c1ccccc1)C(Br)C(Br)c1cccc([N+](=O)[O-])c1 (centres undefined) | NCI/ADR-RES ovarian | 0
CCN1C(=O)C2(Nc3ccccc3S2)c2cc(C)ccc21 (centres undefined) | NCI/ADR-RES ovarian | 0
Cc1nc2cc(Nc3nc(Nc4ccc(F)cc4)nc(-c4cccs4)n3)ccc2n1Cc1ccccc1 | NCI/ADR-RES ovarian | 0
Cc1ccccc1-n1nnc(C(=O)Nc2nc(-c3ccccc3)c(-c3ccccc3)s2)c1C | NCI/ADR-RES ovarian | 0
COc1ccc(/C=N\N2CCOCC2)cc1OC1CCCC1 | NCI/ADR-RES ovarian | 0
Nc1nc(-c2ccnc(Cl)c2)nn1-c1nc2ccccc2s1 | NCI/ADR-RES ovarian | 0
COc1ccc(-c2nc3sc(C)nn3c2-c2nc3cc(C)c(C)cc3[nH]2)cc1 | NCI/ADR-RES ovarian | 0
O=C1NC(=O)C(CSc2ccccc2)(c2ccccc2)N1 (centres undefined) | NCI/ADR-RES ovarian | 0
CCOC(=O)n1cc(C2=C(c3cn(C)c4ccccc34)COC2=O)c2ccccc21 | NCI/ADR-RES ovarian | 1
O=c1c2c(=NCCN3CCCC3)cc3c(=O)n(CCCN4CCOCC4)c(=O)c4ccc(c(O)n1CCCN1CCOCC1)c2c4-3 | NCI/ADR-RES ovarian | 1
N#Cc1c(-c2cccc(F)c2)cc(-c2ccc(Br)s2)[nH]c1=O | NCI/ADR-RES ovarian | 0
COc1ccc2nc(-n3nc(C)cc3C)c(-n3nc(C)cc3C)nc2c1 | NCI/ADR-RES ovarian | 0
COC(=O)c1c2c(c(C)[n+]([O-])c1C)C(=O)C=C(NCc1ccc(Cl)cc1)C2=O | NCI/ADR-RES ovarian | 1
COc1ccc(C2CC(c3cc(OC)c(OC)c(OC)c3)=NN2c2ccc(S(N)(=O)=O)cc2)cc1 (centres undefined) | NCI/ADR-RES ovarian | 0
NS(=O)(=O)c1ccc(C(=O)N/N=C(\CS(=O)(=O)c2ccccc2)c2cc3cc(Br)ccc3o2)cc1 | NCI/ADR-RES ovarian | 0
NC(=O)c1nc2c([nH]c1=O)CCCC2 | NCI/ADR-RES ovarian | 0
C=C1CC[C@@H]2[C@@](C)(CCC[C@]2(C)C(=O)O)[C@@H]1CC[C@H](CO)CCO | NCI/ADR-RES ovarian | 0
Cc1ccc(NS(=O)(=O)c2ccc(-c3cnc(C4CC4)o3)cc2)cc1 | NCI/ADR-RES ovarian | 1
NC(=O)c1cccc(-n2ccc3cc(NC(=O)Nc4ccc(Cl)c(Cl)c4)ccc32)n1 | NCI/ADR-RES ovarian | 0
COc1ccc(NC(=O)COc2ccccc2)c(C(N)=O)c1 | NCI/ADR-RES ovarian | 1
COc1ccc(OC)c(C2C(C#N)=C(N)Oc3cc(O)ccc32)c1 (centres undefined) | NCI/ADR-RES ovarian | 0
COc1ccc(-c2csc3c2-n2cccc2C3=O)cc1O | NCI/ADR-RES ovarian | 1
Cc1nc2cc(Nc3nc(Nc4ccc(F)cc4)nc(-c4ccc(Cl)cc4)n3)ccc2n1Cc1ccccc1 | NCI/ADR-RES ovarian | 0
O=c1c2cc(F)ccc2oc2c(NCCNCCO)nc3ccccc3c12 | NCI/ADR-RES ovarian | 0
O=C(CCc1nnc2sc(/C=C\c3ccccc3)nn12)c1nc2ccccc2[nH]1 | NCI/ADR-RES ovarian | 0
Cn1c(=O)c2c(-c3ccccc3F)n(-c3ccc4c(c3)OCO4)cc2n(C)c1=O | NCI/ADR-RES ovarian | 0
CCCCCCCCCCCCCCNc1nc(CO)ncc1-c1ccc(C(F)(F)F)cc1 | NCI/ADR-RES ovarian | 0
Cc1ccc(N=c2nc3sc4c(C)ccc(C)c4n3c(N)c2C#N)cc1 | NCI/ADR-RES ovarian | 0

---

# Tested on: NCI-H460 lung
# Test Description: NCI-60 one-dose screen, 48 h
# Applied Conditions: 10 µM unless noted
The panel holds about 83,000 compounds, 20% with a hit somewhere; the sample as a whole holds those more often. The source made the active and inactive calls. Rule for the calls: active = growth percent below 10; inactive = the rest.
Labels: true (1) (active), false (0) (inactive)

Molecule | Tested On | Qualitative Label
COc1cccc(C2CC(=O)Nc3cc4c(cc32)OCO4)c1OC (centres undefined) | NCI-H460 lung | false (0)
Clc1ccc(C2=NN(c3ccccc3)[C@H](c3cn(-c4ccccc4)nc3-c3ccccc3)C2)cc1 | NCI-H460 lung | false (0)
COC(=O)c1c2c(c(C)[n+]([O-])c1C)C(=O)C=C(NCc1cccc(Cl)c1)C2=O | NCI-H460 lung | true (1)
CCOC(=O)C1=C(C)N2C(=NC3=C(CCCC/C3=C\c3cc(OC)c(OC)c(OC)c3)C2c2cc(OC)c(OC)c(OC)c2)S1 (centres undefined) | NCI-H460 lung | false (0)
CCOC(=O)c1c(Cl)c2c(n1Cc1ccc(OC)cc1)-c1oncc1CCC2 | NCI-H460 lung | false (0)
CC(C)(C)[Si](C)(C)OC1[C@@H](CNC(=O)NC(=O)CCl)O[C@@H](n2cnc3c(N)ncnc32)[C@H]1O[Si](C)(C)C(C)(C)C (some centres undefined) | NCI-H460 lung | true (1)
Nc1nc(-c2ccnc(Cl)c2)nn1-c1nc2ccccc2s1 | NCI-H460 lung | false (0)
O=[N+]([O-])c1cc2c(cc1Br)C1C(C3C2C(Cl)(Cl)C(Cl)=C(Cl)C3(Cl)Cl)C(Cl)(Cl)C(Cl)=C(Cl)C1(Cl)Cl (centres undefined) | NCI-H460 lung | false (0)
O=C1c2c(c3c4cc(Br)ccc4[nH]c3c3ccc4ccccc4c23)C(=O)N1O | NCI-H460 lung | false (0)
Cc1ccc(-c2c3c(N)c4c(nc3nc3c2c(C)nn3-c2ccccc2)CCCC4)cc1 | NCI-H460 lung | false (0)
O=C1/C(=C/c2ccc([N+](=O)[O-])cc2)Oc2ccc(O)cc21 | NCI-H460 lung | false (0)
O=[N+]([O-])c1ccc2nc(N/N=C/c3ccc(O)cc3)sc2c1 | NCI-H460 lung | false (0)
Cc1ccc(N(CSc2ccc(Cl)cc2)CSc2ccc(Cl)cc2)cc1 | NCI-H460 lung | false (0)
O=C(C[Si](CC(=O)c1cccc(C(F)(F)F)c1)CC(=O)c1cccc(C(F)(F)F)c1)c1cccc(C(F)(F)F)c1 | NCI-H460 lung | true (1)
O=C1/C(=C/c2ccc(Cl)cc2)CN(Cc2cn(CCCNc3ccnc4cc(Cl)ccc34)nn2)C/C1=C\c1ccc(Cl)cc1 | NCI-H460 lung | true (1)
CC(C)(C)[Si](C)(C)OC1[C@@H](O[Si](C)(C)C(C)(C)C)[C@@H](CNC(=O)NC(=O)C(F)(F)F)O[C@H]1n1cnc2c(NC(=O)Nc3ccccc3)ncnc21 (some centres undefined) | NCI-H460 lung | false (0)
COC(=O)c1c2c(c(C)[n+]([O-])c1C)C(=O)C(NCc1ccc(O)cc1)=CC2=O | NCI-H460 lung | true (1)
CC(C)NCC(O)COc1ccc(CCOCC2CC2)cc1 (centres undefined) | NCI-H460 lung | false (0)
O=C(O)CCN1CCN(c2cccc(Cl)c2)CC1 | NCI-H460 lung | false (0)
CCSc1nnc2c3cc(Br)ccc3n(C)c2n1 | NCI-H460 lung | false (0)
Cc1nc2nc(C(F)(F)F)[nH]c2nc1C | NCI-H460 lung | false (0)
C[C@@H](Oc1cc(-c2cnn(C3CC4(CNC4)C3)c2)cnc1N)c1c(Cl)ccc(F)c1Cl | NCI-H460 lung | false (0)
NC(=O)c1nc2c([nH]c1=O)CCCC2 | NCI-H460 lung | false (0)
Cc1nc2cc(Nc3nc(Nc4ccc(F)cc4)nc(-c4ccc(Cl)cc4)n3)ccc2n1Cc1ccccc1 | NCI-H460 lung | false (0)
Clc1ccccc1Nc1ccc2nnc(-c3ccncc3)n2n1 | NCI-H460 lung | false (0)
COC(=O)c1c2c(c(C)[n+]([O-])c1C)C(=O)C=C(NCc1ccc(F)c(Cl)c1)C2=O | NCI-H460 lung | true (1)
COc1ccc(C2=NOC(CC(=O)N(CCO)CCO)C2)cc1OC1CCCC1 (centres undefined) | NCI-H460 lung | false (0)
CC(=O)Nc1ccccc1-c1n[nH]c(=O)[nH]c1=O | NCI-H460 lung | false (0)
O=C(O)C[C@H](O)C[C@H](O)/C=C/c1c(C2CC2)nc2ccccc2c1-c1ccc(F)cc1 | NCI-H460 lung | false (0)
COc1cc(C2CC(=O)Nc3c2ccc2ccccc32)cc(Br)c1OC (centres undefined) | NCI-H460 lung | true (1)
CN1CCC(OC2c3ccccc3CCc3ccccc32)CC1 | NCI-H460 lung | false (0)
CCN(CC)c1ccc2c(c1)OS(=O)(=O)N=C2 | NCI-H460 lung | false (0)
CC(C)(C)[Si](C)(C)OC1[C@@H](COC(=O)NC(=O)CCl)O[C@@H](n2cnc3c(N)ncnc32)[C@H]1O[Si](C)(C)C(C)(C)C (some centres undefined) | NCI-H460 lung | false (0)
CCCCc1ccc(NC(=O)C(F)(F)F)cc1 | NCI-H460 lung | false (0)
CC(=O)OC[C@H](O)[C@@]1(O)CC[C@H]2[C@@H]3CCC4=CC(=O)CC[C@]4(C)[C@H]3[C@@H](O)C[C@@]21C | NCI-H460 lung | false (0)
COc1cc(/C=C/c2cc(/C=C/c3ccc(O)c(OC)c3)n(-c3ccccc3)n2)ccc1O | NCI-H460 lung | true (1)
COc1ccc(/C=C2\CN(Cc3cn(CCCNc4ccnc5cc(Cl)ccc45)nn3)C/C(=C\c3ccc(OC)c(OC)c3)C2=O)cc1OC | NCI-H460 lung | true (1)
Cc1c(C(=O)Nc2nc(-c3ccccc3)cs2)nnn1-c1cccc2ccccc12 | NCI-H460 lung | false (0)
CCOc1ccc(/C=N\N2CCCCCC2)cc1OCC | NCI-H460 lung | false (0)

Taken from PubChem BioAssay (NCI).
